# TESTED ON: REV-ERBβ (Homo sapiens, UniProt Q14995)
# Construct: 6×Histag-REV-ERBα LBD (human; residues 381-579)
# Sequence (Q14995 381-579): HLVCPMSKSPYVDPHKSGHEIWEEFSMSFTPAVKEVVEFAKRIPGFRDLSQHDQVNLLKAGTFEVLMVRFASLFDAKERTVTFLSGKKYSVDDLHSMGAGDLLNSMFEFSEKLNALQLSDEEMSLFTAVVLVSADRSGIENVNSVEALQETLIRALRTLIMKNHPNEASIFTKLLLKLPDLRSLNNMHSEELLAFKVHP
# PROTOCOL NOTES: TR-FRET corepressor interaction assay (REV-ERBβ, FITC-SMRT peptide)
# TEST CONTEXT: Table 2, read-out: REVERBβ agonism (EC50 class, FRET assay)
pEC50: −log10 of the molar value.
Items are presented alongside their recorded pEC50.
TEST READOUT: pEC50

CC(C)Cn1cc(CCNS(=O)(=O)N(C)C)c2ccc(-c3c(Cl)cccc3Cl)cc21 [Example 80] ... < 5.52
CC(C)Cn1cc(CCNS(=O)(=O)N(C)C)c2ccc(C3CCCC3)cc21 [Compound 99] ... 5.52 to 6.30
CC(C)Cn1cc(CCNS(=O)(=O)N(C)C)c2ccc(C3CC3)cc21 [Example 82] ... < 5.52
CC(C)Cn1cc(CCNS(=O)(=O)N(C)C)c2ccc(-c3cnn(C)c3)cc21 [Compound 33] ... < 5.52
CC(C)Cn1cc(CCNS(=O)(=O)N(C)C)c2ccc(-c3ncccn3)cc21 [Compound 32] ... < 5.52
